System: Candida albicans A-26
Test: Agar plate disc diffusion test, MIC per disc
Format: cell-based
Details: 0.01M sodium borate, pH 7.5, 24 hours at 30° C.
Numbered stars: 1 amine (or outer) side, 2 acyl side, 3 side chain; on linkers, the order of the positions; unused ones are H or OH. Bridge positions count the residues as written; N and C are the ends. Square brackets hold non-standard residues; d marks the D form. Peptide text beside a SMILES is read from it. * marks the point of attachment. Orn(4R-OH,5R-OH) = O=C([C@H](C[C@@H](O)[C@@H](O)N[*:3])N[*:1])[*:2]; hTyr(3S-OH,4S-OH) = N[C@H](C(=O)O)[C@H](O)[C@@H](O)c1ccc(O)cc1; Pro(3S-OH,4S-Me) = C[C@H]1CN[C@H](C(=O)O)[C@H]1O; X5 = O=C(c1cc(Cl)cc(N[*:1])c1Cl)[*:2]; X6 = O=C(C=Cc1ccc(N[*:1])cc1)[*:2]; Hyp = O=C(O)[C@@H]1C[C@@H](O)CN1; X8 = O=C(c1ccc(N[*:1])cc1O)[*:2]; Lauroyl = CCCCCCCCCCCC(=O)*; Decanoyl = CCCCCCCCCC(=O)*; 4Abz = Nc1ccc(C(=O)O)cc1

| Compound | Quantity Unit | MIC |
| --- | --- | --- |
| CCCCCCCCCCCC(=O)Nc1ccc(C=CC(=O)N[C@H]2C[C@@H](O)[C@@H](O)NC(=O)[C@@H]3[C@@H](O)[C@@H](C)CN3C(=O)[C@H]([C@@H](C)O)NC(=O)[C@H]([C@H](O)[C@@H](O)c3ccc(O)cc3)NC(=O)[C@@H]3C[C@@H](O)CN3C(=O)[C@H]([C@@H](C)O)NC2=O)cc1 [Example 73] (Lauroyl-[X6][Orn(4R-OH,5R-OH)]T[Hyp][hTyr(3S-OH,4S-OH)]T[Pro(3S-OH,4S-Me)]; lactam 2-C) | μg/disc | 1.25 |
| CCCCCCCCCCCC(=O)Nc1ccc(C(=O)NCC(=O)N[C@H]2C[C@@H](O)[C@@H](O)NC(=O)[C@@H]3[C@@H](O)[C@@H](C)CN3C(=O)[C@H]([C@@H](C)O)NC(=O)[C@H]([C@H](O)[C@@H](O)c3ccc(O)cc3)NC(=O)[C@@H]3C[C@@H](O)CN3C(=O)[C@H]([C@@H](C)O)NC2=O)cc1 [Example 74] ({Lauroyl-4Abz}-G[Orn(4R-OH,5R-OH)]T[Hyp][hTyr(3S-OH,4S-OH)]T[Pro(3S-OH,4S-Me)]; lactam 2-C) | μg/disc | 10 |
| CCCCCCCCCCCC(=O)Nc1ccc(C(=O)N[C@H]2C[C@@H](O)[C@@H](O)NC(=O)[C@@H]3[C@@H](O)[C@@H](C)CN3C(=O)[C@H]([C@@H](C)O)NC(=O)[C@H]([C@H](O)[C@@H](O)c3ccc(O)cc3)NC(=O)[C@@H]3C[C@@H](O)CN3C(=O)[C@H]([C@@H](C)O)NC2=O)c(O)c1 [Example 66] (Lauroyl-[X8][Orn(4R-OH,5R-OH)]T[Hyp][hTyr(3S-OH,4S-OH)]T[Pro(3S-OH,4S-Me)]; lactam 2-C) | μg/disc | 1.25 |
| CCCCCCCCCC(=O)Nc1ccc(C(=O)N[C@H]2C[C@@H](O)[C@@H](O)NC(=O)[C@@H]3[C@@H](O)[C@@H](C)CN3C(=O)[C@H]([C@@H](C)O)NC(=O)[C@H]([C@H](O)[C@@H](O)c3ccc(O)cc3)NC(=O)[C@@H]3C[C@@H](O)CN3C(=O)[C@H]([C@@H](C)O)NC2=O)cc1 [Example 79] ({Decanoyl-4Abz}-[Orn(4R-OH,5R-OH)]T[Hyp][hTyr(3S-OH,4S-OH)]T[Pro(3S-OH,4S-Me)]; lactam 1-C) | μg/disc | 0.625 |
| CCCCCCCCCCCC(=O)Nc1cc(Cl)cc(C(=O)N[C@H]2C[C@@H](O)[C@@H](O)NC(=O)[C@@H]3[C@@H](O)[C@@H](C)CN3C(=O)[C@H]([C@@H](C)O)NC(=O)[C@H]([C@H](O)[C@@H](O)c3ccc(O)cc3)NC(=O)[C@@H]3C[C@@H](O)CN3C(=O)[C@H]([C@@H](C)O)NC2=O)c1Cl [Example 67] (Lauroyl-[X5][Orn(4R-OH,5R-OH)]T[Hyp][hTyr(3S-OH,4S-OH)]T[Pro(3S-OH,4S-Me)]; lactam 2-C) | μg/disc | 0.625 |
